- TARGET_OR_TEST_SYSTEM: T1, monomeric human PRLR (hPRLR.mmh; SEQ ID NO:401) (Homo sapiens, UniProt P16471)
- T1 construct: soluble monomeric (hPRLR.mmh); mmh (myc-myc-hexahistidine) (C)
- T1 sequence (P16471 with tags, fused parts or gaps): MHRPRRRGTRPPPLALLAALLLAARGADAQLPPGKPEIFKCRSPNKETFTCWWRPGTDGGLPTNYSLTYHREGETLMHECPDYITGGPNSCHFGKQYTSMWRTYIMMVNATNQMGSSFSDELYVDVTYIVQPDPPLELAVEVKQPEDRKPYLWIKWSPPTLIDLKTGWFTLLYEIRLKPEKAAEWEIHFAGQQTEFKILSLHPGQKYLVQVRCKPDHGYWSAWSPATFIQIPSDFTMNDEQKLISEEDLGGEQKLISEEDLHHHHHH
- PROTOCOL_DESCRIPTION: Surface plasmon resonance (Biacore T200), antibody-capture format
- Type: binding
- CONDITIONS: 25° C., analyte hPRLR.mmh
PROPERTY_MEASURED: ka (M/s)

# MOLECULE, RECORDED_NUMBER
data = [
    ("H1H6774P: fully human anti-PRLR antibody, human IgG1 Fc; HCVR/LCVR SEQ ID NOs 34/42 (antibody, V domains shown) VH: EVQLVESGGGLAQPGGSLRLSCVASGFTFSTYWMSWVRQAPGKGLDWVGNIKQDGSEQNYVDSVRGRFTISRDNAKNSLFLQMNSLRAEDTGVYYCATLLTKGDYWGQGTLVTVSS VL: DIQMTQSPSSLSASVGDSVTITCRASQDISNYLDWFQQKPGKAPKSLIYAASILQGGVPSRFSGSGYGTDFTLTISSLQPEDFATYYCRQYKTYPFTFGPGTKVDIK", 715000),
    ("H1H6790P: fully human anti-PRLR antibody, human IgG1 Fc; HCVR/LCVR SEQ ID NOs 114/122 (antibody, V domains shown) VH: EVQLVESGGGLVQPGGSLRLSCAASGFTFSSYAMTWVRQAPGKGLEWVSAITGSVGNTYYADSVKGRFTISRDNSKNTLYLQMNSLGAEDTAEYYCAKGAGMTTNWYLDLWGRGTLVTVSS VL: DIVMTQSPDSLAVSLGARATINCKSSQSVLYSSNNQNYLTWYQQKPGQPPKLLIKWASTRESGVPDRFSGSGSGTDFTLTISSLQAEDVAVYYCQQYASSPYTFGQGTKLEIK", 565000),
]
